Origin of values: PubChem BioAssay AID330

- System: P388 leukemia ip, CD2F1 mice, survival T/C
- assay: NCI In Vivo Anticancer Drug Screen. Data for tumor model P388 Leukemia (intraperitoneal) in CD2F1 (CDF1) mice
- measurement.setup: endpoint: median survival time; dose: 25.0 mg/kg/injection; schedule: Q04DX003 (ip); vehicle: saline with Tween-80; higher = longer survival
- Procedure: The antitumor activity of compounds was measured in mice bearing transplantable tumors. Survival or tumor size were measured and the results are expressed as the measurement made in the treated group (T) divided by the measurement made in the vehicle treated control group (C). The tumor model used in this assay is P388 Leukemia (intraperitoneal) in CD2F1 (CDF1) mice
Inconclusive results and toxic doses are left out.
quantity.kind: T/C

Q: Which T/C reading was recorded for the compound O=C(O)c1ccc2nc(-c3ccccc3)cn2c1 ?
A: 98 % of control

Q: Which T/C reading was recorded for the compound CCCCCCNP(=O)(N1CC1)N1CC1 ?
A: 218 % of control

Q: Which T/C reading was recorded for the compound COC(=O)C(F)C(N)C(=O)O (stereo unspecified) ?
A: 101 % of control

Q: Which T/C reading was recorded for the compound CCCCCCC(Cn1ccnc1)c1ccccc1Cl (stereo unspecified) ?
A: 100 % of control

Q: Which T/C reading was recorded for the compound Cc1nc(N)c2nc(SCc3ccc(Cl)cc3)c(N)nc2n1 ?
A: 100 % of control

Q: Which T/C reading was recorded for the compound Cc1ccc2cccc([N+](=O)[O-])c2n1 ?
A: 104 % of control

====

- Tested on: P388 leukemia ip, CD2F1 mice, survival T/C
- assay: NCI In Vivo Anticancer Drug Screen. Data for tumor model P388 Leukemia (intraperitoneal) in CD2F1 (CDF1) mice
- measurement.setup: endpoint: median survival time; dose: 50.0 mg/kg/injection; schedule: Q01DX009 (ip); vehicle: water; higher = longer survival
Toxic doses and inconclusive results are not listed.
quantity.kind: T/C

Q: Which T/C reading was recorded for the compound CN(C)CCCNc1cc(O)c2c(c1O)C(=O)c1ccccc1C2=O ?
A: 120 % of control

Q: Which T/C reading was recorded for the compound CC(=O)C(=O)C1=C2CCCN2CCc2cc3c(cc21)OCO3 ?
A: 101 % of control

Q: Which T/C reading was recorded for the compound CC1(C)C(C#N)C(=O)NC(=O)C1C#N (centres undefined) ?
A: 93 % of control

Q: Which T/C reading was recorded for the compound C[C@@H]1C[C@@H]([C@H](O)CC2CC(=O)NC(=O)C2)C(=O)[C@@H](C)C1 ?
A: 99 % of control

Q: Which T/C reading was recorded for the compound Nc1cccc(S(=O)(=O)N/N=C/C(=O)O)c1 ?
A: 119 % of control

Q: Which T/C reading was recorded for the compound O=C(O)c1cc(C(=O)O)c(C(=O)O)cc1C(=O)O ?
A: 96 % of control

Q: Which T/C reading was recorded for the compound COc1cc2cccc(N)c2cc1OC ?
A: 110 % of control

Q: Which T/C reading was recorded for the compound CCSC(C(O)C(O)C(O)C(O)CO)n1cnc2c(SC)ncnc21 (centres undefined) ?
A: 95 % of control

Q: Which T/C reading was recorded for the compound NCCCn1ccc2c3ccccc3nc-2c1 ?
A: 104 % of control

====

Please go through the items and note down their T/C.
- Tested on: P388 leukemia ip, CD2F1 mice, survival T/C
- assay: NCI In Vivo Anticancer Drug Screen. Data for tumor model P388 Leukemia (intraperitoneal) in CD2F1 (CDF1) mice
- measurement.setup: endpoint: median survival time; dose: 200.0 mg/kg/injection; schedule: Q04DX003 (ip); vehicle: Klucel (hydroxypropylcellulose) (HPC); higher = longer survival
Toxic doses and inconclusive results are not listed.

Q: Which T/C reading was recorded for the compound CC1(C)C(=O)C(C)(C)C1O[Si](C)(C)OC1C(C)(C)C(=O)C1(C)C ?
A: 101 % of control

Q: Which T/C reading was recorded for the compound O=C(c1ccccc1)C(c1ccccc1)n1ncc2c1CCC2 (stereo not given) ?
A: 100 % of control

Q: Which T/C reading was recorded for the compound CN(C(=O)C(Cl)Cl)c1ccc(-c2csc(Cc3ccccc3)n2)cc1 ?
A: 99 % of control

Q: Which T/C reading was recorded for the compound Cn1cnc2cc(N3CCCCC3)c(N)cc2c1=O ?
A: 99 % of control

Q: Which T/C reading was recorded for the compound O=P(O)(O)SP(=O)(O)O.[Mn] ?
A: 110 % of control

Q: Which T/C reading was recorded for the compound CCCCCCCCCCCCCCC/C([O-])=N/[N+](C)(C)CC(C)O (stereo not given) ?
A: 99 % of control

Q: Which T/C reading was recorded for the compound C1COCCSCCOCCOCCSCCO1 ?
A: 100 % of control

Q: Which T/C reading was recorded for the compound Clc1ccc(CN2COc3c(ccc4cccnc34)C2)c(Cl)c1 ?
A: 104 % of control

Q: Which T/C reading was recorded for the compound O=C1N=C2SCCN2C1(c1ccccc1)c1ccccc1 ?
A: 109 % of control

Q: Which T/C reading was recorded for the compound COc1ccc(C(=O)N=C(N)n2nc(C)cc2C)cc1 ?
A: 101 % of control
